assay.text: yeast display, Sf9 membrane polyspecificity reagent, FACS + sequencing; frameworks hold sequencing errors
metric.name: polyreactivity (PSR sort gate)

[
  {
    "query.sequence": "QVQLVESGGGLVQAGGRLRLSCAASGSILNFYAMGWYRQAPGKEREFVASISWDGASTYYADSVKGRFTISRDNAKNTVYLPMNSLKPEDTAVYYCAATRYYSFWGQGTQVTVSS",
    "value.observed": "low polyreactivity"
  },
  {
    "query.sequence": "QDQLVESGGGLVQAGGSLRLSCAASGSTFAGYAMGWYRQAPGKERELVATITYSGGSTYYADSVKGRFTISRDNAKNTVYLQMNSLKPEDTAVYYCAKKASYWWGYEYWGQGTQVTVSS",
    "value.observed": "low polyreactivity"
  },
  {
    "query.sequence": "QVQLVESGGGLVQAGGSIRLSCAASGSTFCVNAMGWDRQAPGKERELVAVITFTGSRTYYADSVKGRFTISRDNAKNTVYLQMNSLKPEDTAVYYCAADRRRVLYKFDYWGQGTQVTVSS",
    "value.observed": "low polyreactivity"
  },
  {
    "query.sequence": "QVQLVESGGGLVQAGGSLRLSCAASGGTFVANTMGWYRQAPGKERELVAAITWSGGRTYYADSVKGRFTISRDNAKNTVYLQMNSLKPEDTAVYYCNADYYRKAESSPEGYDYWGQGTQVTVSS",
    "value.observed": "high polyreactivity"
  },
  {
    "query.sequence": "QVQLEESGGGLVQAGGSLRLSCAASGRTFTPNAMGSSRQAPGKERELVASIRRGTSTYYADSVKGRFTISRDNAKITVYLQMNSLKPEDTAVYYCAARPFVPRVGTYSYYWGQGTQVTVSS",
    "value.observed": "high polyreactivity"
  },
  {
    "query.sequence": "QVQLVESGGGLVQAGGSLRLSCAASGRILSSNAMGWYRQAPRKERELVAAISWSGGSTYYADSVKGRFTISRDNAKNTVYFQMNSLKPEDTAVYYCAAPFTTTFDYWGKGTQVTVSS",
    "value.observed": "low polyreactivity"
  }
]

Let us move to another entry and its polyreactivity (PSR sort gate).
Please give measured polyreactivity (PSR sort gate) of the following entry: "QVQLVESGGGLVQAGGSLRLSCAASGSIFDSYAMGWYRQAPGKERELVADITSDGSTHYADSVKGRFTISRDNAKNSVYLQMNSLKPEDTAVYYCAAALPLVDFYDYWGQGTQVTVSS" low polyreactivity

----------
assay.text: yeast display, Sf9 membrane polyspecificity reagent, FACS + sequencing; frameworks hold sequencing errors
metric.name: polyreactivity (PSR sort gate)

[
  {
    "query.sequence": "QVQLVESGGGLVQAGGSLRLSCAASGNIFATYAMGWYRQAPGKERELVAAIRSGGNTNYADSVKGRFTISRDNAKNTVYLQMNSLKPEDTAVYYCNAYKIFYGYIRYNYWGQGTQVTVSS",
    "value.observed": "high polyreactivity"
  },
  {
    "query.sequence": "QVQLVESGGGLVQAGGSLRLSCAASGSIFRSYAMGWYRQAPGKERELVAAISSSGGRTYYADSVKGRFTISRDNAKNTVYLQMNSLKPEDTAVYYCAAYGGGGYKYDYWGQGTQVTVSS",
    "value.observed": "low polyreactivity"
  },
  {
    "query.sequence": "QVQLVESGGVLVQEGGSLRLSCAASGRIFQIYAMGWYRQAPGKERELFAAISGSTSYADSVKGRFTISRDNAKNTVYLQMNSLKPEDTAVYYCAKRVVRGKVDYWGQGTQVTVSS",
    "value.observed": "low polyreactivity"
  },
  {
    "query.sequence": "QVQLVESGVGLVQAGGSLRLSCAASGRIFNRYAMGWYRQAPGKERELVAAITGSGGRTYYADSVKGRFTISRDNAKNTVYVVRISMKPEDTAVYFCAKYYPEYPAYGRGDYWGQGTQVTVSS",
    "value.observed": "low polyreactivity"
  },
  {
    "query.sequence": "QVQLVESGGGLVQAGGSLRLSCAASGSTFDSYAMGWYRQAPGKERELVAAISRSGGRTYYADSVKGRFTISRDNAKNTVYLQMNSLKPEDTAVYYCNAAYKRWVTPGYDAYDYWGQGTQVTVSS",
    "value.observed": "high polyreactivity"
  }
]

Please give measured polyreactivity (PSR sort gate) of the following entry: "QVQLVESGGGLVQAGGSLRLSCAASGGIFTYNAMGWYIQAPGKERELVAAITWNGGRTYYADSVKGRFTISRDTAKNTVYLQMNSLKPEDTAVYYCAARSPVKRQSRKQYYYWGQGTQVTVSS" high polyreactivity

Please give measured polyreactivity (PSR sort gate) of the following entry: "QVQLVESGGGLVQAGGSLRLSCAASGLTFPYYAMGWYRQAPGKERELVAAISSSGGSTYYADSVKGRFTISRDNAKNTVYLQMNSLKPEDTAVYYCAAQRYINYDYWGQGTQVTVSS" high polyreactivity

Please give measured polyreactivity (PSR sort gate) of the following entry: "QVQLVESGGGLVQAGGSLRLSCAASGFIFSKNAMGWYRQAPGKERELVARITRRVGSTYYADSVKGRFTISRDNAKITVYLQMNSLKPEDTAVYYWAAVVHIQRSTRDYWGQGTQVTVSS" high polyreactivity

Please give measured polyreactivity (PSR sort gate) of the following entry: "QVQLVESGGGLVQAGGSLRLTCAASGLTFYYYAMGRYRQATGKETELVASISTGGKKYYADSVKGRFTISRDNANNTVYLQMNSLKPEDTAVYYCAADRYDSSQFYYWGQGTQLTVSS" low polyreactivity

Please give measured polyreactivity (PSR sort gate) of the following entry: "QVQLVESGGGLVQAGGSLRLSCAASGSIFGVYDMGWYRQAPGKERELVAVINSNGGSTYYADSVKGRFTISRDNAKNTVYLQMNSLNPEDTAVYYCAADYQSYVYIGYGYWGQGTQVTVSS" low polyreactivity

Please give measured polyreactivity (PSR sort gate) of the following entry: "QVPLVESGGGLVQAGGSLRISCAASGSILQYYALGWYRQAPGKERELVASISSSSGSTYYADSVKGRFTISRDNAKNTVYLQMNSLKPEDTAVYYCNARGWTLAADFGYWGQATQVTVSS" low polyreactivity
